# Measured Target: Serine/threonine-protein kinase Chk1 (Homo sapiens)
# Sequence (O14757 whole entry): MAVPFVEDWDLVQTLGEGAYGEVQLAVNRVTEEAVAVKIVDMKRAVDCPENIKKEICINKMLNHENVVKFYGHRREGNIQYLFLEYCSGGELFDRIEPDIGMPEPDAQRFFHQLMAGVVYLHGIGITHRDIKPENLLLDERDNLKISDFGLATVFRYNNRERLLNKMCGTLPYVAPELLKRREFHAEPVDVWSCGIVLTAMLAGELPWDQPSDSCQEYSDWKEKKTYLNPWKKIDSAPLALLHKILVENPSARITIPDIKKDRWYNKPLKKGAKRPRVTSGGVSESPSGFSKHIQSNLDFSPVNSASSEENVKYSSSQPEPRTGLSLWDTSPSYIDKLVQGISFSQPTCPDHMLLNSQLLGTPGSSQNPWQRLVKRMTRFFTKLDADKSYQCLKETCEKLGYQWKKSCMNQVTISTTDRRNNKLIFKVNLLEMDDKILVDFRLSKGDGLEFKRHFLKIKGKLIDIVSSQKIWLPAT
pIC50: −log10 of the molar value.
Literature compilation of pIC50 measurements on Serine/threonine-protein kinase Chk1 (Homo sapiens).
Short version: pIC50 at least 7 is yes (1), less is no (0).

1. O=c1[nH]c2ccc(-c3cn[nH]c3)cc2cc1-c1cc2cc(CN3CCC(F)CC3)ccc2[nH]1 = yes (1)
2. O=c1[nH]c2sccc2c(NC2CCNCC2)c1-c1nc2ccccc2[nH]1 = yes (1)
3. NCCCc1cc2cc[nH]c(=O)c2c2cc(C(N)=O)ccc12 = yes (1)
4. O=c1[nH]c2sc(Cl)cc2c(N[C@H]2CCCNC2)c1-c1nc2ccccc2[nH]1 = yes (1)
5. COc1cc(-c2cnc(N)c(N3CC[C@@H](C(=O)O)[C@@H](C)[C@H]3C)n2)cc(OC)c1OC = no (0)
6. Cc1[nH]c(-c2ccccc2)c(-c2ccccc2)c1-c1nnc(C)c2nn(-c3ccccc3)cc12 = no (0)
7. NC(=O)c1cnc(N[C@H]2CCCNC2)c2ccsc12 = no (0)
8. O=c1[nH]c2sccc2c(N2CCOCC2)c1-c1nc2ccccc2[nH]1 = no (0)
9. O=C1Nc2cc(-c3ccc(OC(F)(F)F)cc3)ccc2/C1=C/c1cc[nH]c1 = no (0)
